Experiment: yeast display, Sf9 membrane polyspecificity reagent, FACS + sequencing; frameworks hold sequencing errors
measured.parameter: polyreactivity (PSR sort gate)

Some entries whose results are on file:
- sequence.input: "HVQLQESGGGLVQAGGSLRLSCAASGSIFQATYMGWYRQAPGKEREFVASITYGSITNYADSVKGRFTIGRDNAKDTLYLQMNSLKPEDTAVYYCAVDRHYIPDFHYWGQGTQVTVSS"
  polyreactivity (PSR sort gate): "low polyreactivity"
- sequence.input: "QVQLVESGGGLVQAGGSLRLSCAASGRTFDYNAMGWSRQAPGKERELVAAISSSGGSTYYADSVKGRFTISRDNAKNTVYLQMNSLKPEDTAVYYCATLYPRKSIYYYWGQGTQVTVSS"
  polyreactivity (PSR sort gate): "high polyreactivity"
- sequence.input: "QVQLQESGGGLVQGGGSLRLSCAASGSNYRSWYMGWYRQAPGKERELVASITEGATTNYAYSVKAALPLAAITRNSVYRQMDSMKPEDTAVYYRGASFGSTYDLVYWGQGTQVTVSS"
  polyreactivity (PSR sort gate): "high polyreactivity"
- sequence.input: "QVQLVESGGGLVQAGGSLRLSCAASGSTFKVYAMGWYRQAPGKERELVAVISGGGRTNYADSVKGRFTISRDNAKNTVYLQMNSLNPEDTAVYYSAALGPYGSARRKYGYWGQGTQVTVSS"
  polyreactivity (PSR sort gate): "high polyreactivity"
- sequence.input: "QFQLVESGRGLVQAGGSLRLSCAASGRTFTYYAMGWYRQAPGNERELVAAIRYTGGSTHYADSVKGRFTISRENAKNTVYFQMNSLKPEDTAVYYCADRRAYTRGGTVYFGYYYWGQGTQVTVSS"
  polyreactivity (PSR sort gate): "high polyreactivity"

Each sequence below has a recorded value; state its polyreactivity (PSR sort gate).
1. QVQLVESGGGLVQAGGSLRLSCAASGITFYYYAMGWYRPAPGKERELVADITGTGSRTYYADSVKGRFTISRDNAKNTVYLQMNSLKPEDTAVYYCAATKRFPWFVYGEGDSWGQGTQVTVSS
2. QVQLVESGGGLVQAGGSLRLSCAASGGTQRYYAMGWYRQAPGKERDFVASISRSGGSTYYADTVKGRFTISRDNAKNTVYLQMNSLKPEDTAVYYCAAYWSPGYTTRRGYWGQGTQVTVSS
3. QVQLVESGGGLVQAGGSLRLSCAASGFTFSTYAMGWYRQAPGKERELVAAITRSGGSTYYADSVKGRFTISRDNAKNTVYLQMNSLKPEDTAVYYCATDASFYDPDLYPYGYDYWGQGTQVTVSS

Solution:
1. high polyreactivity
2. high polyreactivity
3. high polyreactivity

====

Experiment: yeast display, Sf9 membrane polyspecificity reagent, FACS + sequencing; frameworks hold sequencing errors
measured.parameter: polyreactivity (PSR sort gate)

Some entries whose results are on file:
- sequence.input: "QVQLVESGGGLVQAGGSLRLSCAASGRIFYSYAMGWYRQAPGKERELVAAITESGGSTNYADSVKGRFTISRDNAKNTVYLQMNSLKPEDTAVYYCNARYKLTFNLYNYWGQGTQVTVSS"
  measured.parameter: "polyreactivity (PSR sort gate)"
  measurement: "low polyreactivity"
- sequence.input: "QVQLVESGGGLVQAGGSLRLSCAASGIIFRTNAMGWYRQAPGKERDFVAAISAGGTRTYYADSVKGRFTISRDNAKNTVYLQMNSLKPEDTAVYYCAARYPEYETEDDYWGQGTQVTVSS"
  measured.parameter: "polyreactivity (PSR sort gate)"
  measurement: "high polyreactivity"
- sequence.input: "QVQLVESGGGLVQAGGSLRLSCAASGRIFTANAMGCYIQAPGKERELVAAISWRGGSTYYADSVKGRFTISRDNAKNTVYLQMNSLKPEDTAVYYCNKVGATWRQWFGYWGQGTQVTVSS"
  measured.parameter: "polyreactivity (PSR sort gate)"
  measurement: "high polyreactivity"
- sequence.input: "QVQLVESGGGLVQAGGSLRLSWAASGSIFRSYAMGWYRQAPGKEREFVAAIPNSSGRTYYADSVKGRFTISRDNAKNTVYLQMNSLKPEDTAVYYCAARLPRTYQGGKLYRLQYSWGQGTQVTVSS"
  measured.parameter: "polyreactivity (PSR sort gate)"
  measurement: "high polyreactivity"

Each sequence below has a recorded value; state its polyreactivity (PSR sort gate).
1. QVQLVESGGGLVQAGGSLRLSCAASGITFYVYAMGWYRQAPGKERELVAAISGSGGNTYYADSVKGRFTISRDNAKNTVYVQMNSLKPEDTAVYYCNADDHSPYYCDLDYWGQGTQVTVSS
2. QVQLVESGGGLVQAGGSLRLSCAASGRTFPYYDMGWYRQAPGKERELVAAITSGGTTNYADSVKGRFTISRDNAKNTVYLQMNSLKPEDTAVYYCAAGSPWYYFSSYGYWGQGTQVTVSS
3. QVQLVESGGGLVQAGGSLRLSCAASGRTFASYAMGWYRQAPGKERELVASIRYSGGSTHYADSVKGRFTISRDNAKNPVYLQMNSLKPEDTAVYYCNARPKFRTYNYWGQGTQVTVSS
4. QVQRVESGGGLFQAGGRLRLSCAASGSISLKYAMGWYRQAPGKERELVATISRGGSTNYADSVKGRFTISRDNAKNTVYIQMNSLKPEDTAVYYCAANYGRPYGTYGYWGQGTQVTVSS
5. QVQLVESGGGLVQAGGSLRLSCAASGFIFSRNAMGWYRQAPGKERELVDRISRSGGRTYYADSVKGRFTISRDNAKNTVYLQMNSLKPEDTAVYYCATDHVRQSPYDYWGQGTQVTVSS

Solution:
["low polyreactivity", "low polyreactivity", "high polyreactivity", "high polyreactivity", "high polyreactivity"]

Each sequence below has a recorded value; state its polyreactivity (PSR sort gate).
1. QVQLVESGGGLVQAGGSLRLSCAASGLIFSYSALAWYRQAPGKERELVGSMSTSGGNTNYADSVKGRFTISRDNAKNTVYVQMNSVKPVDTAVYYCAAGIGKQYHTGYPTAGRKYGYWGQGTQVTVSS
2. QVQLVESGGGLVQAGGSLRLSCAASGSTFPFYAMGWYRQAPGKERELVAAITSGGSTYADSVKGRFTISRDNAKNTVYLQMNSLKPEDTAVYYCAASWPRWCRFGYWGQGTQVTVSS

Solution:
1: high polyreactivity; 2: low polyreactivity

Sourced from the nanobody polyreactivity screen of Harvey et al. (2022)
